Origin of the recorded values: the nanobody polyreactivity screen of Harvey et al. (2022)

assay: yeast display, Sf9 membrane polyspecificity reagent, FACS + sequencing; frameworks hold sequencing errors
metric: polyreactivity (PSR sort gate)

| macromolecule-sequence | endpoint-value |
| --- | --- |
| QVQLVESGGGLVQAGGSLRLSCAASGLTFLNKAMGWYREAPGKERELVAAISRGGSTNYADSVKGRFTISRDNAKNTVYLQMNSLKPQDTAGYYCAAQIFESAYGMDYWGQGTQVTVSS | low polyreactivity |
| QVQLVESGGGLVQAGGSLRLSCAASGRIFWYYAMGWYRQAPGKERELVATISYGGGNTYYADSVKGRFTISRDNAKNTVYLQMNSLKPEDTAVYDCARVPYAYLPYKPFQQYSYDYWGQGTQVTVSS | high polyreactivity |
| QVQLVESGGGLVQAGGSLRLSCAASGRIFHGYVMGWYRQAPGKERELVAAINQSGTSTYYADSVKGRFTISRDNAKNTVYLQMNSLKPEDTAVYYCAKDWAYRRHWVGFYYWGQGTQVTVSS | low polyreactivity |
| QVQLVESGGGLVQAGGSLRLSCAAYGSTFPSYAMGSNRQAPGKERELVAAISWTGGTTYFADSVKGRFTISRDNAKNTVYLQMNSLKPEDTAVYYCNAKDGGGSQDQAQKRPIIRFDYWGQGSQVTVSS | high polyreactivity |
| QVQLVESGGGLVQAGGSLRLSCAASGGIFFSYAMGWYRQAPGKERELVAAIRTNGGTTYYADSVKGRFTISRDNAKNTVYLQMNSLKPEDTAVYYCAALPGGYYDRGEYDYWGQGTQVSVSS | low polyreactivity |

Each sequence below has a reported value. Please supply its polyreactivity (PSR sort gate).
1. QVQLVESGGGLVQAGGSLRLSCAASGNIFRSYAMGWYRQAPGKERELVAAISSSDDSTYYADSVKGRFTISRDNAKNTVYLQMNSLKPEDTAVYYCAADGWSWYKGYVGDDMDYWGQGTQVTVSS
2. QVQLVESGGGLVQAGGSLRLSCAASRSIFTWYAMGWYIQEPGKERELVAAITRGGSTYADSVKWRFTISRDNAKYTVYLLMNSLKPEDTAVYDCNAFYGVYDFNYWGQGTHVTVSS

1: low polyreactivity; 2: low polyreactivity

----------
assay: yeast display, Sf9 membrane polyspecificity reagent, FACS + sequencing; frameworks hold sequencing errors
metric: polyreactivity (PSR sort gate)

Please review the entries below; each comes with its answer.
| macromolecule-sequence | endpoint-value |
| --- | --- |
| QVQLVESGGGLVQAGGSLRLSCAASGRIFDANAMGWYRQAPGKERELVAAITSSGGRTYYADSVKGRFTISRDNAKNTVYLQMNSLKPEDTAVYYCARAGRSWDTLYKYYLEHDYWGQGTQVTVSS | low polyreactivity |
| QVQLVESRGGLVQAGGSLRLSSAASGSTYGVNPMGWYRQAPGKERELVAAISVSGGRTYYADSVKGRFTISRDNAKNTVDLQMNSLKPEDTAVYYCNADGLYAYVWYDYWGQGTQVSVSS | low polyreactivity |
| QVQLVESGGGLVQEGGSLRLSCAASGGTFYAYTMGWYRPAPGTERELVAAISRSGGSTYYADSVKGRITISRDTAKNSVYLQINSLKPEDTAVYYCAAVESGADYYYWGQGTQVTVSS | high polyreactivity |
| QVQLVESGGGLVQAGGSLRLSCAASGSTFPFNAMGWYRQAPGKERELVAGIRSRGGSTYYADSVKGRFTISRDNAKNTVYLQMNSLKPEDTAVYYCAKVYKDRDDLFYYWGQGTQVTVSS | low polyreactivity |

Requested read-out: polyreactivity (PSR sort gate). Entry: QVQLVESGGGLVQAGGSLSLSCAASGLIFDVYAMGWYRKAPGKERELVAVISRGVSTNYPDSVKGRFTISRDNAKNTVYLQMNSLKPEDTAVYYCATDSRGYDYWGQCTQVTVSS
high polyreactivity
